Every entry's value here was drawn from the Human Domainome abundance scans (Beltran et al. 2025).

B1: POU domain, class 2, transcription factor 2, residues 200 to 269; numbered along this chain, P09086 (parent)
chain: LEELEQFARTFKQRRIKLGFTQGDVGLAMGKLYGNDFSQTTISRFEALNLSFKNMCKLKPLLEKWLNDAE

- Variants of: B1
- method.summary: abundance fitness (aPCA) (normalised: wild type 0, dead -1); higher = more abundant; growth selection in yeast, the domain comes from the species named
- test.context: Homo sapiens
# Lookup of reported abundance fitness keyed by entry
Answer with a number only.

The examples below pair each entry with its known result.
{"sequence.data": "LEELEQFARTFKQRRIKNGFTQGDVGLAMGKLYGNDFSQTTISRFEALNLSFKNMCKLKPLLEKWLNDAE [L18N]", "abundance fitness": -0.044}
{"sequence.data": "LEELEQFARTFKQRRIKGGFTQGDVGLAMGKLYGNDFSQTTISRFEALNLSFKNMCKLKPLLEKWLNDAE [L18G]", "abundance fitness": -0.159}
{"sequence.data": "LEELEQFARTFKQRRIKLGFTQGCVGLAMGKLYGNDFSQTTISRFEALNLSFKNMCKLKPLLEKWLNDAE [D24C]", "abundance fitness": -0.172}
{"sequence.data": "LEELEQFARTFKQRRIKLGFTQGDVGLAMGKLYGNDSSQTTISRFEALNLSFKNMCKLKPLLEKWLNDAE [F37S]", "abundance fitness": -0.24}
{"sequence.data": "LEELEQFARTFKQHRIKLGFTQGDVGLAMGKLYGNDFSQTTISRFEALNLSFKNMCKLKPLLEKWLNDAE [R14H]", "abundance fitness": -0.118}

Can you share its abundance fitness? I mean this variant: LEELEQFARTFKQRRIKLGFTQGDVGLAMGKLYSNDFSQTTISRFEALNLSFKNMCKLKPLLEKWLNDAE [G34S] -0.062

Can you share its abundance fitness? I mean this variant: LEELEQFARTFKQRRIKLGFTQGDVGLAMGKLYGNDFSQTTISRFEALNLSFKNMCKLKPALEKWLNDAE [L61A] -0.043

Can you share its abundance fitness? I mean this variant: LEELEQFARTFKQRRIKLGFTQGDVGLAMGKLYGNCFSQTTISRFEALNLSFKNMCKLKPLLEKWLNDAE [D36C] -0.12

Can you share its abundance fitness? I mean this variant: LEELIQFARTFKQRRIKLGFTQGDVGLAMGKLYGNDFSQTTISRFEALNLSFKNMCKLKPLLEKWLNDAE [E5I] -0.293

Can you share its abundance fitness? I mean this variant: LEELEQFARTFKQRRIKLGFTNGDVGLAMGKLYGNDFSQTTISRFEALNLSFKNMCKLKPLLEKWLNDAE [Q22N] -0.351
